Origin of the recorded values: patent US9834518B2

# assayed-system: BAF3 EGFR DEL T790M PURO POOL (Homo sapiens, UniProt P00533, DEL746-750/T790M, cells depend on it)
# Sequence (P00533 with tags, fused parts or gaps DEL746-750/T790M): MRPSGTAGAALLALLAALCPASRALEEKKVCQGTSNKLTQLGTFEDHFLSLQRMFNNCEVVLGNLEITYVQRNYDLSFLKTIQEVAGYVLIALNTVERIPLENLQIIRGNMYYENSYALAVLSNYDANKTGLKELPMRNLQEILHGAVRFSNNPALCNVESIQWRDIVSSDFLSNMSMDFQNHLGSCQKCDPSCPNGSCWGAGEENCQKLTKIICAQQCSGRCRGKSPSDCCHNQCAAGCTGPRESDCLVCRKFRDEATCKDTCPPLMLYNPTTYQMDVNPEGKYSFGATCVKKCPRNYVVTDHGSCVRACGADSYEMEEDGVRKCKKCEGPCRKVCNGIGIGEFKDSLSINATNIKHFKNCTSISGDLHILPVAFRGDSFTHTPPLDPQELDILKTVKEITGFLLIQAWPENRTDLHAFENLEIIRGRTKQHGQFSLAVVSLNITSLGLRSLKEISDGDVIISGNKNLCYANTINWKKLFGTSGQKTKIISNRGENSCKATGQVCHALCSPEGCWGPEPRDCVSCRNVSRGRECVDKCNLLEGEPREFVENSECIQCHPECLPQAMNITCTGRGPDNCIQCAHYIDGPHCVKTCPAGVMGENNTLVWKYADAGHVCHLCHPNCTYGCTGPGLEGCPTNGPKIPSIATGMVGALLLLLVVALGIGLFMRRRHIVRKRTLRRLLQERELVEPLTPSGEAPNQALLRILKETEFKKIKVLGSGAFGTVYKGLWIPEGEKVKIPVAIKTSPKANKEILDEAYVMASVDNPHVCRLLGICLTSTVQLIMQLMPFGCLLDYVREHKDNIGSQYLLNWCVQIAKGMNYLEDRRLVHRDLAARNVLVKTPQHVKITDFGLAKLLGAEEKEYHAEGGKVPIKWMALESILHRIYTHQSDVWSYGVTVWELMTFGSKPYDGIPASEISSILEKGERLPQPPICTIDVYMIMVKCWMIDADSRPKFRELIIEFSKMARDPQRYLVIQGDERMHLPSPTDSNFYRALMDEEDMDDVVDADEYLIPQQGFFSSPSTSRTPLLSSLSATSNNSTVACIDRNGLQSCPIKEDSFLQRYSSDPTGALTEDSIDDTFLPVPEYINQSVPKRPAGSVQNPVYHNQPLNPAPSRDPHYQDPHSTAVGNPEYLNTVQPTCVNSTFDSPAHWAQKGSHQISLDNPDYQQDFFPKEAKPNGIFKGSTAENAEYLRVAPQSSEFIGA
# test-summary: Cell proliferation (MTT), BAF3 EGFR DEL T790M
# Type: cell-based
Hi there, I'd appreciate the recorded IC50 for every entry that follows.

Here are 5 compounds together with their reported answers.
* C/C=C/C(=O)Nc1ccc(OC)c(Nc2ncc(Cl)c(Nc3ccccc3P(C)(C)=O)n2)c1 | ≥ 250 nM
* C=CC(=O)Nc1ccc(OC)c(Nc2ncc(C)c(Nc3ccccc3P(C)(C)=O)n2)c1 | < 51 nM
* C=CC(=O)N(CCCN(C)C)c1ccc(OC)c(Nc2ncc(Cl)c(Nc3ccccc3P(C)(C)=O)n2)c1 | 101 to 250 nM
* C=CC(=O)Nc1ccc(OC)c(Nc2ncc(Br)c(Nc3ccccc3P(C)(C)=O)n2)c1 | < 51 nM
* COc1ccc(NC(=O)/C=C/CN(C)C)cc1Nc1ncc(Cl)c(Nc2ccccc2P(C)(C)=O)n1 | < 51 nM

Answer for every listed entry: what is its IC50? The entries follow.
1. C=CC(=O)Nc1ccc(OC)c(Nc2nc(Nc3ccccc3P(C)(C)=O)c3c(F)c[nH]c3n2)c1
2. COc1ccc(NC(=O)C2(C)CO2)cc1Nc1ncc(Cl)c(Nc2ccccc2P(C)(C)=O)n1 (centres unmarked)

1. ≥ 250 nM
2. < 51 nM

Lookup result for C=CC(=O)Nc1ccc(OC)c(Nc2ncc(CC)c(Nc3ccccc3P(C)(C)=O)n2)c1 ; measured IC50: < 51 nM
